Form field: remaining at 0.5 h, 1 µM (one value per entry).
test: Metabolic stability in mouse liver microsomes assessed as compound remaining at 1 uM after 30 mins; format: ADME, Microsome; details: read-out: Stability
Reply with just the number (in %).

1) CN1Cc2c(-c3ccc(CNS(N)(=O)=O)c(F)c3)ccnc2NC1=O	91.1

--- query ---
# remaining at 0.5 h, 1 µM lookup, item CN1Cc2c(ncnc2N2CCC(C)(CNS(N)(=O)=O)CC2)NC1=O 96.4

###

Molecular target: Ectonucleotide pyrophosphatase/phosphodiesterase family member 1 (Homo sapiens)
Sequence (whole entry): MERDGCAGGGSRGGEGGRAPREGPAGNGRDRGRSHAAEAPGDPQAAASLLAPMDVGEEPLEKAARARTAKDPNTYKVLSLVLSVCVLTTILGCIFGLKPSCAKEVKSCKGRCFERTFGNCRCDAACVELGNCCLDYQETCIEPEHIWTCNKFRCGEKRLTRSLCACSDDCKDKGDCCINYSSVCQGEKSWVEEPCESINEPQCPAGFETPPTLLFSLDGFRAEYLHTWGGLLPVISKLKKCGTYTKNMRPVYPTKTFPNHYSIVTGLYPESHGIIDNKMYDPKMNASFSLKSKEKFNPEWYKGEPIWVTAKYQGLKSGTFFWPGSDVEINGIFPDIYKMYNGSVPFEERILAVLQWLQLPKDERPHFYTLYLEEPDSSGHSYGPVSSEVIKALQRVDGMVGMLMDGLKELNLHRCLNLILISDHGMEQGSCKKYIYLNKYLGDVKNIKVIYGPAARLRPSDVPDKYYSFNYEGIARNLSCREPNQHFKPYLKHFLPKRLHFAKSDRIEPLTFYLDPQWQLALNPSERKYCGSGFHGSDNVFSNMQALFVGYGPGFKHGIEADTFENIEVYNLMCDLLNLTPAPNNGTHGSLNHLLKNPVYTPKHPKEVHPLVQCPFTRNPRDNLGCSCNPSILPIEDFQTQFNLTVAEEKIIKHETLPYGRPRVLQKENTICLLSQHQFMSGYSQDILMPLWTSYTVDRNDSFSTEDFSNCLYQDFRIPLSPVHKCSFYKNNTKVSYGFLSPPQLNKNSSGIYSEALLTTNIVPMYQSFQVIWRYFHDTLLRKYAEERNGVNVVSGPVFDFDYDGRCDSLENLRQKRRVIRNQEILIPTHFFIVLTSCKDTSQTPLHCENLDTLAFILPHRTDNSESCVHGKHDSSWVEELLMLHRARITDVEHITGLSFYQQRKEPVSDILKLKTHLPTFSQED
Assay: Inhibition of ENPP1 (unknown origin) at 10 uM relative to control
Decide by inhibition: equal to or exceeding 90% means 1, less means -1.

1) CN1Cc2c(ncnc2N2CCC(C)(CNS(N)(=O)=O)CC2)NC1=O	1
2) NS(=O)(=O)NCc1ccc(-c2ccnc3c2CN(Cc2ccccc2)C(=O)N3)cc1	-1
3) CN1Cc2c(ncnc2-c2cccc(CNS(C)(=O)=O)c2)NC1=O	-1
4) CN1Cc2c(-c3ccc(CNS(N)(=O)=O)cc3)ccnc2N(C)C1=O	1
5) CN1Cc2c(ncnc2N2CCC3(CC2)CCN(S(N)(=O)=O)C3)NC1=O	1

Would you say Cc1ccc(S(=O)(=O)NCc2cccc(-c3ncnc4c3CN(C)C(=O)N4)c2)cc1 shows inhibition at minimum 90%? -1

Would you say CN1Cc2c(ncnc2N2CCC(CNS(N)(=O)=O)CC2)NC1=O shows inhibition at minimum 90%? 1
